Literature roundup of Interstitial collagenase (Homo sapiens) data, read-out Ki.

The following compounds have reported results that may help.
COC(=O)CCC[C@H](C(=O)NO)N1CCNc2cc(OCc3cc(OC)cc(OC)c3)ccc2S1(=O)=O    > 4.95 µM
C[C@H](C(=O)NO)N1CCNc2cc(Oc3ccccc3)ccc2S1(=O)=O    > 4.95 µM

[ask] Answer with Ki of `Cc1cc(COc2ccc(S(=O)(=O)CC3(CC(=O)NO)CCCCC3)cc2)c2ccccc2n1` measured for Interstitial collagenase (Homo sapiens).
[reply] > 4.9 µM

[ask] Write down the reported Ki (system: Interstitial collagenase (Homo sapiens)) of `O=C1NCCCC[C@@H](C(=O)NCC(=O)N2CCOCC2)NC(=O)[C@H](Cc2ccc(-c3ccccc3C(F)(F)F)cc2)[C@@H](C(=O)NO)CCCO1`
Sequence (P03956 whole entry): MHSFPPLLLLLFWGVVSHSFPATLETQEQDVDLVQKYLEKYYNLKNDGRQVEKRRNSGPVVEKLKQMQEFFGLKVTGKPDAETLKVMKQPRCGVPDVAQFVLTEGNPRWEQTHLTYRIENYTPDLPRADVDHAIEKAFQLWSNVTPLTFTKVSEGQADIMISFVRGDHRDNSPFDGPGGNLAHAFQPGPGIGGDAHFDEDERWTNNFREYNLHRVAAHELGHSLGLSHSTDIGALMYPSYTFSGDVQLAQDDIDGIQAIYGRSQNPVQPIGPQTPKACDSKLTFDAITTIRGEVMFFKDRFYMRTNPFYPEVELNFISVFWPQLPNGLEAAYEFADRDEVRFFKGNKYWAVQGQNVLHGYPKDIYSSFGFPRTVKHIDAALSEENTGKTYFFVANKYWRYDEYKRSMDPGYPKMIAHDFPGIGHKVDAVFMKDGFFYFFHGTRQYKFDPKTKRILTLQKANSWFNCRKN
[reply] > 2 µM

[ask] Look up and report measured Ki (Interstitial collagenase (Homo sapiens)) for the following compound: `COc1cc(COc2ccc3c(c2)NCCN([C@H](CCCCN)C(=O)NO)S3(=O)=O)cc(OC)c1`
[reply] > 4.95 µM

[ask] Give Ki; test system Interstitial collagenase (Homo sapiens); compound `CNC(=O)[C@@H]1Cc2cn(c3ccccc23)CCCCO[C@H](C(=O)NO)[C@@H](CC(C)C)C(=O)N1`
[reply] < 0.001 µM

[ask] Give Ki for `CCCCCCCCCC[C@H](N[C@H](C)C(=O)O)C(=O)N[C@@H](CC(C)C)C(=O)Nc1ccccc1` tested on Interstitial collagenase (Homo sapiens).
[reply] > 10 µM

[ask] Tell me Ki of `Cc1cc(COc2ccc(N3CC[C@](N)([C@H](C)C(=O)NO)C3=O)cc2)c2ccccc2n1` when tested on Interstitial collagenase (Homo sapiens).
[reply] > 5 µM

[ask] # return Ki for `CC(C)C[C@H](NC(=O)[C@H](CCc1ccccc1)CP(=O)(O)CCCCN)C(=O)Nc1ccccc1` , test system: Interstitial collagenase (Homo sapiens)
[reply] ≥ 10 µM
